Listed next: entries and their corresponding NO production inhibitory effect at 100 nM (% inhibition).
- Target under test: TLR4 (Mus musculus, UniProt Q9QUK6)
- Construct: endogenous in cells; host or cells: RAW264.7 (murine macrophage cell line)
- Sequence (Q9QUK6 26-835): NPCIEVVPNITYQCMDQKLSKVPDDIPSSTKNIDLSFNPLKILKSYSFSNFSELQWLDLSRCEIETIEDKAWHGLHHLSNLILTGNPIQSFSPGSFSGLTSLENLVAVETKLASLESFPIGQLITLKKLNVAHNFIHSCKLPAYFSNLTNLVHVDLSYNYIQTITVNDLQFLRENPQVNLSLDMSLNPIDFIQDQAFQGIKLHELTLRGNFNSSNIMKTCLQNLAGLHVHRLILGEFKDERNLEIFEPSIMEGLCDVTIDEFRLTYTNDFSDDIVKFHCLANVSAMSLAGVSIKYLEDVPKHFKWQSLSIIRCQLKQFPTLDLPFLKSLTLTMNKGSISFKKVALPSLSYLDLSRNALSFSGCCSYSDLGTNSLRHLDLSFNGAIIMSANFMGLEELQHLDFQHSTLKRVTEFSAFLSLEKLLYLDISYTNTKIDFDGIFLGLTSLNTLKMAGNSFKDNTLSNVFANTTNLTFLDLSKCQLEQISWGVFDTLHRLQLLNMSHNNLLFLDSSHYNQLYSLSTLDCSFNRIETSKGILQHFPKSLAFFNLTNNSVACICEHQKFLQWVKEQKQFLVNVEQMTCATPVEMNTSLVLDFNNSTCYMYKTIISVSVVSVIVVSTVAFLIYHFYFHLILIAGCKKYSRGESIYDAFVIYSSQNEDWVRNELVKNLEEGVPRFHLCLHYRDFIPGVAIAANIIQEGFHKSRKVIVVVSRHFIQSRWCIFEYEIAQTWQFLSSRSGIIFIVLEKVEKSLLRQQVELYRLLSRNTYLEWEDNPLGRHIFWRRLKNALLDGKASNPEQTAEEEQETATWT
- Sequence (Q9JHF9 19-160 partner): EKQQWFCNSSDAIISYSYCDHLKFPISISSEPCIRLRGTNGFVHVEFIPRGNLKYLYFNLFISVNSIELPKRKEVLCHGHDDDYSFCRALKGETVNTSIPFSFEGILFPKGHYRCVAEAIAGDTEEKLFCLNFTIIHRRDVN
- Test name: Inhibitory effect with respect to NO production (LPS/interferon γ-stimulated RAW264.7)
- Type: cell-based, murine
- Experimental parameters: RAW264.7 cells, LPS 1.25 ng/mL and mouse interferon γ 0.2 ng/mL, nitrite ion in culture supernatant
Measurement label: NO production inhibitory effect at 100 nM (% inhibition)

- Molecule: "CCOC(=O)C1=CC2(CCC1S(=O)(=O)C1CCc3c(F)ccc(Cl)c31)O[C@@H](CO)[C@H](CO)O2 (some centres unmarked) [Compound 9]"
  Value: 110
- Molecule: "CCOC(=O)C1=CCOCC1S(=O)(=O)C1CCc2cccc(Cl)c21 (single isomer, unassigned) [Compound 20]"
  Value: 104
- Molecule: "CCOC(=O)C1=CC2(CC[C@H]1S(=O)(=O)[C@H]1CCc3cccc(Cl)c31)O[C@H](CO)[C@@H](CO)O2 [Compound 6]"
  Value: 103
- Molecule: "CCOC(=O)C1=CC2(CCC1S(=O)(=O)C1CCc3cccc(C)c31)O[C@@H](CO)[C@H](CO)O2 (some centres unmarked) [Compound 13]"
  Value: 100
- Molecule: "CCOC(=O)C1=CC2(CCC1S(=O)(=O)C1CCc3c(Cl)cccc31)O[C@@H](CO)[C@H](CO)O2 (some centres unmarked) [Compound 3]"
  Value: 110
- Molecule: "CCOC(=O)C1=CCCC[C@H]1S(=O)(=O)[C@H]1CCc2cccc(Cl)c21 [Compound 18]"
  Value: 104
- Molecule: "CCOC(=O)C1=CC2(CCC1S(=O)(=O)C1CCc3cccc(Br)c31)O[C@@H](CO)[C@H](CO)O2 (some centres unmarked) [Compound 12]"
  Value: 100
- Molecule: "CCOC(=O)C1=CC2(CCC1S(=O)(=O)C1CCc3cc(F)cc(Br)c31)O[C@@H](CO)[C@H](CO)O2 (some centres unmarked) [Compound 11]"
  Value: 110
- Molecule: "CCOC(=O)C1=CC2(CC[C@H]1S(=O)(=O)[C@H]1CCc3cc(F)cc(Cl)c31)O[C@@H](CO)[C@H](CO)O2 [Compound 15]"
  Value: 106
- Molecule: "CC1(COC(=O)C2=CC3(CCC2S(=O)(=O)C2CCc4cccc(Cl)c42)O[C@@H](CO)[C@H](CO)O3)CC1 (some centres unmarked) [Compound 8]"
  Value: 99
- Molecule: "CCOC(=O)C1=CC2(CC[C@H]1S(=O)(=O)[C@H]1CCc3cccc(Cl)c31)O[C@@H](CO)[C@H](CO)O2 [Compound 7]"
  Value: 105
- Molecule: "CCOC(=O)C1=CC2(CC[C@H]1S(=O)(=O)[C@H]1CCc3cc(F)cc(Cl)c31)O[C@H](CO)[C@@H](CO)O2 [Compound 14]"
  Value: 107
- Molecule: "CCOC(=O)C1=CC2(CCC1S(=O)(=O)C1CCc3ccc(F)c(Cl)c31)O[C@@H](CO)[C@H](CO)O2 (some centres unmarked) [Compound 10]"
  Value: 100
- Molecule: "CCOC(=O)C1=CCCCC1S(=O)(=O)C1CCc2c(Cl)cccc21 (centres unmarked) [Compound 1]"
  Value: 96
- Molecule: "CCOC(=O)C1=CC2(CC[C@H]1S(=O)(=O)[C@H]1CCCc3cccc(Cl)c31)O[C@@H](CO)[C@H](CO)O2 [Compound 19]"
  Value: 107
- Molecule: "CCOC(=O)C1=CC2(CCC1S(=O)(=O)C1CCc3c(Cl)cccc31)O[C@H](CO)[C@@H](CO)O2 (some centres unmarked) [Compound 2]"
  Value: 99
- Molecule: "CCOC(=O)C1=CC2(CC[C@H]1S(=O)(=O)[C@H]1CCc3cccc(Cl)c31)O[C@H](COC)[C@@H](COC)O2 [Compound 21]"
  Value: 112

---

- Target under test: TLR4 (Mus musculus)
- Construct: endogenous in cells; host or cells: RAW264.7 (murine macrophage cell line)
- Test name: Inhibitory effect with respect to NO production (LPS/interferon γ-stimulated RAW264.7)
- Assay type: cell-based, murine
- Experimental parameters: RAW264.7 cells, LPS 1.25 ng/mL and mouse interferon γ 0.2 ng/mL, nitrite ion in culture supernatant, 0.1 µM
Below, each entry is listed with its recorded NO production inhibitory effect at 100 nM (% inhibition).
Measurement label: NO production inhibitory effect at 100 nM (% inhibition)

- Compound: "CCOC(=O)C1=CC2(CCC1S(=O)(=O)C1CCCc3cccc(Cl)c31)O[C@H](CO)[C@@H](CO)O2 (single isomer, unassigned) [Compound 17]"
  Value: "86 % inhibition"
- Compound: "CCOC(=O)C1=CC2(CCC1S(=O)(=O)C1CCCc3cccc(Cl)c31)O[C@H](CO)[C@@H](CO)O2 (single isomer, unassigned) [Compound 16]"
  Value: "108 % inhibition"
- Compound: "CCOC(=O)C1=CC(O)CCC1S(=O)(=O)C1CCc2cccc(Cl)c21 (racemic) [Compound 5]"
  Value: "100 % inhibition"
- Compound: "CCOC(=O)C1=CC(O)CCC1S(=O)(=O)C1CCc2cccc(Cl)c21 (racemic) [Compound 4]"
  Value: "110 % inhibition"

The reported measurements were obtained from patent US9828357B2.
